Measured values drawn from the Kinase Knowledgebase extract (Sharma et al. 2016) for this set.

- target_or_system: PIK3CB;PIK3CG;PIK3CD;PIK3CA (human)
- protocol_description: Enzyme Assay
quantity_name: pIC50
Worth noting: pIC50 values are minus log10 of concentrations stated in mol/L.

# query: pIC50 of entry `O=C(c1nn([C@H]2CCCN(C(=O)C3CCOCC3)C2)c2c1CS(=O)(=O)c1ccccc1-2)N1CCOCC1`
5.82

And for `COc1cccc2c1S(=O)(=O)Cc1c(C(=O)N3CCOCC3)nn([C@H]3CCCN(CCN4CC(F)C4)C3)c1-2` ?
7.21

Further, for `O=C(c1nn(-c2cccc(Nc3ccccc3)c2)c2c1CS(=O)(=O)c1ccccc1-2)N1CCOCC1` ?
5.57

* * *

- target_or_system: PIK3CB;PIK3CG;PIK3CD;PIK3CA (human) (UniProt P48736)
- protocol_description: Enzyme Assay
Listed next: entries and their corresponding IC50.
Write the answer as a number in µM, unit excluded.

In the examples that follow, each entry is paired with its recorded IC50.
INSERT INTO assay_data (compound, result_value) VALUES
  ('O=C(c1nn(C2CCCN(CCN3CCOCC3)C2)c2c1CS(=O)(=O)c1c(Cl)cccc1-2)N1CCOCC1 (stereo not given)', 0.12),
  ('Cc1ccccc1-c1cccc(-n2nc(C(=O)N3CCOCC3)c3c2-c2ccccc2S(=O)(=O)C3)c1', 1.07),
  ('O=C(c1nn(C2CCCN(CCN3CC(F)(F)C3)C2)c2c1CS(=O)(=O)c1c(F)cccc1-2)N1CCOCC1 (stereo not given)', 0.038),
  ('O=C(c1nn(-c2ccccn2)c2c1CS(=O)(=O)c1ccccc1-2)N1CCOCC1', 1.59);

We next turn to a different compound, shown below.
I have this compound here, `Cn1nc(C(=O)N2CCOCC2)c2c1-c1cccc(Br)c1S(=O)(=O)C2` , and I need its recorded IC50.
1.09

* * *

- target_or_system: UniProt:P48736
- protocol_description: Enzyme Assay
Classification scheme (IC50): A = under 100 nM, B = from 100 nM up to 300 nM, C = 300 nM and over

INSERT INTO results (sample_smiles, category) VALUES
  ('O=C(c1nn(-c2ccc(CN3CCC(F)(F)CC3)cc2)c2c1CS(=O)(=O)c1ccccc1-2)N1CCOCC1', 'B'),
  ('O=C(c1nn([C@H]2CCCN(CCC3CCOCC3)C2)c2c1CS(=O)(=O)c1ncccc1-2)N1CCOCC1', 'A'),
  ('O=C(c1nn(-c2ccc(F)cc2)c2c1CS(=O)(=O)c1ccccc1-2)N1CCOCC1', 'C'),
  ('O=C(c1nn([C@H]2CCCN(CC3CCOCC3)C2)c2c1CS(=O)(=O)c1ccccc1-2)N1CCOCC1', 'A'),
  ('COc1cccc2c1S(=O)(=O)Cc1c(C(=O)N3CCOCC3)nn(C)c1-2', 'C'),
  ('O=C(c1ccc(-n2nc(C(=O)N3CCOCC3)c3c2-c2ccccc2S(=O)(=O)C3)cc1)N1CCOCC1', 'B'),
  ('O=C(c1nn(-c2ccc(CN3CCCC3)cc2)c2c1CS(=O)(=O)c1ccccc1-2)N1CCOCC1', 'B'),
  ('COCCN1CCC[C@H](n2nc(C(=O)N3CCOCC3)c3c2-c2cccc(C)c2S(=O)(=O)C3)C1', 'A');

Now examine the next entry.
Band for the recorded IC50 of `O=C(c1nn(-c2cccc(CN3CCSCC3)c2)c2c1CS(=O)(=O)c1ccccc1-2)N1CCOCC1` ?
B

* * *

- target_or_system: PIK3CB;PIK3CG;PIK3CD;PIK3CA (human) (UniProt P48736)
- protocol_description: Enzyme Assay
pIC50: −log10 of the molar value.
Rule: pIC50 of 6 or more gives class 1; anything lower gives class 0.

Recorded results for 6 compounds are shown here.
INSERT INTO assay_data (compound, category) VALUES
  ('Cc1ccccc1-c1ccc(-n2nc(C(=O)N3CCOCC3)c3c2-c2ccccc2S(=O)(=O)C3)cc1', 'class 0'),
  ('O=C(c1nn(N2CCOCC2)c2c1C(F)S(=O)(=O)c1ccccc1-2)N1CCOCC1 (stereo not drawn)', 'class 0'),
  ('O=C(c1nn(-c2ccccc2)c2c1CS(=O)(=O)c1ccc(CN3CCOCC3)cc1-2)N1CCOCC1', 'class 0'),
  ('COCCCN1CCCC(n2nc(C(=O)N3CCOCC3)c3c2-c2ccccc2S(=O)(=O)C3)CC1 (stereo not drawn)', 'class 1'),
  ('CCc1nc(-c2cccc(-n3nc(C(=O)N4CCOCC4)c4c3-c3ccccc3S(=O)(=O)C4)c2)no1', 'class 0'),
  ('O=C(c1nn([C@@H]2CCCN(CCn3ccnc3)C2)c2c1CS(=O)(=O)c1ccccc1-2)N1CCOCC1', 'class 1');

Given `O=C(c1nn(-c2cccc(Cl)c2)c2c1CS(=O)(=O)c1ccccc1-2)N1CCOCC1` , state whether its pIC50 is at least 6.
class 1

Subsequent entry: `CN(C)Cc1noc(-c2cccc(-n3nc(C(=O)N4CCOCC4)c4c3-c3ccccc3S(=O)(=O)C4)c2)n1`
class 0

Also `COCCNCCN1CCC[C@H](n2nc(C(=O)N3CCOCC3)c3c2-c2ccccc2S(=O)(=O)C3)C1` ?
class 1

Lookup O=C(c1nn(C2CCCC(C(=O)N3CCOCC3)C2)c2c1CS(=O)(=O)c1ccccc1-2)N1CCOCC1 (stereo not drawn)
class 1

Then what about the compound O=C(c1nn(C2CCCN(CCN3CCOCC3)C2)c2c1CS(=O)(=O)c1c(F)cccc1-2)N1CCOCC1 (stereo not drawn) ?
class 1

# iterate: `Cn1nc(C(=O)N2CCOCC2)c2c1-c1cc(F)ccc1S(=O)(=O)C2`
class 0

Next up: COc1ccc2c(c1)S(=O)(=O)Cc1c(C(=O)N3CCOCC3)nn([C@H]3CCCN(C4CCCOC4)C3)c1-2 (stereo partly drawn)
class 1

* * *

- target_or_system: PIK3CB;PIK3CG;PIK3CD;PIK3CA (human) (UniProt P48736)
- protocol_description: Enzyme Assay
quantity_name: pIC50
pIC50 here: minus log base 10 of the concentration, concentration in moles per litre.

INSERT INTO assay_data (compound, quantity_name, result_value) VALUES
  ('COC1CCN(C(=O)c2cccc(-n3nc(C(=O)N4CCOCC4)c4c3-c3ccccc3S(=O)(=O)C4)c2)CC1', 'pIC50', 6.52);

Shifting focus to the compound that follows.
I would be grateful if you could share the reported pIC50 for `O=C(c1nn(Cc2nc3ccccc3s2)c2c1CS(=O)(=O)c1ccccc1-2)N1CCOCC1` .
5.83

* * *

- target_or_system: PIK3CB;PIK3CG;PIK3CD;PIK3CA (human) (UniProt P48736)
- protocol_description: Enzyme Assay
IC50 vs 600 nM: less than gives 1.0; not less than gives 0.0.

INSERT INTO results (molecule, category) VALUES
  ('O=C(c1nn(-c2cccc(F)c2)c2c1CS(=O)(=O)c1ccccc1-2)N1CCOCC1', 0.0),
  ('CCCn1nc(C(=O)N2CCOCC2)c2c1-c1ccccc1S(=O)(=O)C2', 0.0),
  ('O=C(c1cccc(-n2nc(C(=O)N3CCOCC3)c3c2-c2ccccc2S(=O)(=O)C3)c1)N1CCCC(O)C1 (centres undefined)', 1.0);

Field: below-cutoff. Rule: recorded IC50 strictly less than 600 nM. Subject: `CS(=O)(=O)Nc1cccc(-n2nc(C(=O)N3CCOCC3)c3c2-c2ccccc2S(=O)(=O)C3)c1`
0.0

Try this molecule next: `O=C(c1ccc(-n2nc(C(=O)N3CCOCC3)c3c2-c2ccccc2S(=O)(=O)C3)cc1)N1CCCCC1`
1.0

Next molecule up: `Cn1cc(-n2nc(C(=O)N3CCOCC3)c3c2-c2ccsc2S(=O)(=O)C3)ccc1=O`
0.0

Also need `COCCN1CCC[C@@H](n2nc(C(=O)N3CCOCC3)c3c2-c2ccccc2S(=O)(=O)C3)C1` , thanks.
0.0

Next entry: `COC1CCN(CCN2CCC[C@H](n3nc(C(=O)N4CCOCC4)c4c3-c3ccccc3S(=O)(=O)C4)C2)CC1`
1.0

Same again, this time with `NCCN1CCC[C@H](n2nc(C(=O)N3CCOCC3)c3c2-c2ccccc2S(=O)(=O)C3)C1`
1.0

* * *

Each entry below lists one item and its recorded IC50 value.
- target_or_system: PIK3CB;PIK3CG;PIK3CD;PIK3CA (human) (UniProt P48736)
- protocol_description: Enzyme Assay
# value in nM; strip the unit string

INSERT INTO assay_data (compound, unit_string, result_value) VALUES
  ('O=C(c1nn(-c2ccccc2)c2c1CS(=O)(=O)c1ccccc1-2)N1CCOC(CO)C1 (stereo not given)', 'nM', 6530),
  ('O=C(Nc1cccc(-n2nc(C(=O)N3CCOCC3)c3c2-c2ccccc2S(=O)(=O)C3)c1)N1CCOCC1', 'nM', 3590),
  ('COc1ccc2c(c1)S(=O)(=O)Cc1c(C(=O)N3CCOCC3)nn([C@H]3CCCN(CCN4CCOCC4)C3)c1-2', 'nM', 24),
  ('O=C(c1nn(C2CCN(C3CCOCC3)C2)c2c1CS(=O)(=O)c1c(F)cccc1-2)N1CCOCC1 (stereo not given)', 'nM', 29);

Switching to the query record.
Entry under review: O=C(c1nn(C2CCOC2)c2c1CS(=O)(=O)c1ccccc1-2)N1CCOCC1 (stereo not given) . Reported IC50?
890
